Where do the numbers come from? From the supplement of paper PMC9170038.

# System: MS2 coat protein
# assay-comment: apparent KD of MS2 coat protein; higher = weaker reporter binding
# condition-summary: Eterna round: R107; input ligand: theophylline 2 mM
Let's look at some sequences and their measured apparent KD of MS2 coat protein.
Record the value in nM, omitting the unit from your answer.

- residue-codes: "ACGUAAUGCAGAAGGAGCGUCAACCUCUUACAUGAGGAUCACCCAUGUUACAUGGUUGUAUGACAGGUAGGUCGCUGAAGUACGA [JR_ExcArginiB_Sub001]"
  measured-target: "MS2 coat protein"
  unit-string: "nM"
  apparent KD of MS2 coat protein: 50.4

# context switch: different sequence, same apparent KD of MS2 coat protein
Request: Report apparent KD of MS2 coat protein under test system MS2 coat protein for AACAUGAGGAUCACCCAUGUUUGCUAUGAAGGAGCGUCGGAAAUGACAGGUAGGUCGCAUGGUAGACCGAGUAUUAUCUGUAUGG [EAA NP+V+V2 #11] .
Result: 10.7
